assay: photoluminescence quantum yield (fraction); solvent given as SMILES; settings: in ClCCl
So basically, if photoluminescence quantum yield comes in under 0.2 it's fulfilled, and if it's 0.2 or more it's not fulfilled.

compound	assigned-label
Cc1nc2cc(/C=C/c3ccc(N(C)C)cc3)ccc2nc1-c1ccccc1	fulfilled

Dear colleague, could you confirm whether photoluminescence quantum yield of CCNc1cc2oc(=O)c3c(=O)oc4ccccc4c3c2cc1C falls below 0.2? Thanks.
not fulfilled

Dear colleague, could you confirm whether photoluminescence quantum yield of Cc1cc(C)c(C2=C3C=C(/C=C/C(=O)OC(C)(C)C)C=[N+]3[B-](F)(F)n3cc(/C=C/C(=O)OC(C)(C)C)cc32)c(C)c1 falls below 0.2? Thanks.
not fulfilled

Dear colleague, could you confirm whether photoluminescence quantum yield of CCn1c2ccc(/C=C/c3ccc4c(c3)c3cc(-c5nc6ccccc6s5)ccc3n4CC)cc2c2cc(-c3nc4ccccc4s3)ccc21 falls below 0.2? Thanks.
not fulfilled

Dear colleague, could you confirm whether photoluminescence quantum yield of CCCCN1C(=O)c2cc(Oc3ccc(C(C)(C)C)cc3)c3c4c(Oc5ccc(C(C)(C)C)cc5)cc5c(=O)[nH]/c(=C\c6ccc7ccccc7n6)c6cc(Oc7ccc(C(C)(C)C)cc7)c(c7c(Oc8ccc(C(C)(C)C)cc8)cc(c2c37)C1=O)c4c56 falls below 0.2? Thanks.
not fulfilled

Dear colleague, could you confirm whether photoluminescence quantum yield of COc1ccc(C#Cc2ccc(C#Cc3ccc(P(=O)(c4ccc(C#Cc5ccc(C#Cc6ccc(OC)cc6)cc5)cc4)c4ccc(C#Cc5ccc(C#Cc6ccc(OC)cc6)cc5)cc4)cc3)cc2)cc1 falls below 0.2? Thanks.
not fulfilled

Dear colleague, could you confirm whether photoluminescence quantum yield of CN(C)c1ccc(-c2c(/C=C3/C=Cc4ccccc4N3Cc3ccccc3)c(=O)c2=O)cc1 falls below 0.2? Thanks.
fulfilled

Dear colleague, could you confirm whether photoluminescence quantum yield of N#Cc1ccc(-c2nc(-c3ccccc3)c3ccccn23)cc1 falls below 0.2? Thanks.
not fulfilled

Dear colleague, could you confirm whether photoluminescence quantum yield of COC(=O)c1cc(=O)n(C)c2cc(-c3ccc(N(C)C)cc3)sc12 falls below 0.2? Thanks.
not fulfilled

* * *

assay: photoluminescence quantum yield (fraction); solvent given as SMILES; conditions: in CC#N
measurement-label: photoluminescence quantum yield
Give bare numbers.

# example entries with known answers
compound	photoluminescence quantum yield
CC1[C@@H]2[C@@H]1[C@]1(c3ccccc3)N=NC2(c2ccccc2)C2C3C=CC(C3)C21 (some centres undefined)	0.018
CCC1=C(C)C2=C(c3cc(C(=O)Cl)cc(C4=C5C(C)=C(CC)C(C)=[N+]5[B-](F)(F)n5c(C)c(CC)c(C)c54)c3)c3c(C)c(CC)c(C)n3[B-](F)(F)[N+]2=C1C	0.41
c1ccc2c(-c3cc(-c4nccs4)nc(-c4nccs4)c3)cccc2c1	0.33
CC(=O)c1ccc2ccc3c(NCCC(=O)NCCCCCCc4nc5c(=O)[nH]c(N)nc5n4[C@H]4C[C@H](O)[C@@H](CO)O4)ccc4ccc1c2c43	0.72
F[B-]1(F)n2c(nc(Br)c2Br)-c2cccc[n+]21	0.32
COc1cc(N(c2ccc(C=C(C#N)C#N)c(OC)c2)c2ccc(C=C(C#N)C#N)c(OC)c2)ccc1C=C(C#N)C#N	0.047
CCCCCCCCN1c2ccc(C#Cc3ccc(F)cc3)cc2Sc2cc(C=O)ccc21	0.24
CC1=CC(C)=[N+]2C1=C(c1ccc3cccnc3n1)c1c(C)cc(C)n1[B-]2(F)F	0.04
Cc1csc2[n+]1[B-](F)(F)n1c(c3cccc4cccc1c43)=N2	0.78
COc1ccc(-n2nc(C#N)c(N3CCN(c4ccccn4)CC3)n2)cc1	0.064

Could you tell me photoluminescence quantum yield for each of these compounds? They are listed below.
1. OB(O)c1ccc(-c2ccc(N(c3ccccc3)c3ccccc3)cc2)cc1
2. CCOC(=O)CN1C(=O)C2=C(c3ccc(N4CCCCC4)cc3)N(CC(=O)OCC)C(=O)C2=C1c1ccc(C#N)cc1
3. c1ccc(-c2nn(-c3ccccc3)c3nc4ccccc4cc23)cc1
4. CCCCN(CCCC)c1ccc(/C=C/c2ccc3nc(/C=C/c4ccc(N(C)C)cc4)c(-c4ccccc4)nc3c2)cc1
5. CC1(C)Cc2c(c3ccccc3c3nc4c(nc23)c2c(c3ccccc34)OC(C)(C)C2)O1
6. Cc1cc(C)c(C2=C3C=c4c(c5ccccc5c5ccccc45)=[N+]3[B-](F)(F)n3c2cc2c4ccccc4c4ccccc4c23)c(C)c1
7. O=C1c2ccccc2-c2cccc(O)c21

1: 0.68; 2: 0.01; 3: 0.73; 4: 0.02; 5: 0.39; 6: 0.55; 7: 0.053

Could you tell me photoluminescence quantum yield for each of these compounds? They are listed below.
1. CN(C)c1ccc(/C=C/c2nc3ccccc3s2)cc1
2. COC(=O)c1cc(=O)n(C)c2cc(-c3cc4c5c(c3)CCCN5CCC4)sc12

[0.0066, 0.02]
